targetOrSystem: T1, dog activated Protein C (dog, UniProt Q28278 43-456)
T1 sequence (looked up): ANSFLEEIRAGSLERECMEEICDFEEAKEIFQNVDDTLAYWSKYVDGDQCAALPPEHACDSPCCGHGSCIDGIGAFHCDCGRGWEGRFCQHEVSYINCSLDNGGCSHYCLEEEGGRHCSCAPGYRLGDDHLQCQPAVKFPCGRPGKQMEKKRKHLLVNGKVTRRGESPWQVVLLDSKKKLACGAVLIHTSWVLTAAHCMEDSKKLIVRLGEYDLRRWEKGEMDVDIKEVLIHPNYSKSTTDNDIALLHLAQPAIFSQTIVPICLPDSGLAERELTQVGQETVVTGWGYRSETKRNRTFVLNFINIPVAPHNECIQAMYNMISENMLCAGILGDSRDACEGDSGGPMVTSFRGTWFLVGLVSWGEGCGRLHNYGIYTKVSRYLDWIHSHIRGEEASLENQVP
measurementProtocol: cell-based or functional assay
Below: a set of entries, each annotated with reported Anti-aPC IC50 (nM), Amidolytic activity.

binder	Anti-aPC IC50 (nM), Amidolytic activity
C7A23 hIgG1 (antibody, V domains shown, also called C7A23-IgG) VH: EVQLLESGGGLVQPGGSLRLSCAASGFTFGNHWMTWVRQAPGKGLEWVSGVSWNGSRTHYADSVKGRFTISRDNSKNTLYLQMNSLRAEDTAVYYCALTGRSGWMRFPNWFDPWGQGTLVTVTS VL: QSVLTQPPSASGTPGQRVTISCSGSSSNIGNNYVSWYQQLPGTAPKLLIYRNNQRPSGVPDRFSGSKSGTSASLAISGLRSEDEADYYCQSYDSDLSGPYVLFGGGTKLTVLG	49
C7I7 hIgG1 (antibody, V domains shown, also called C717-IgG) VH: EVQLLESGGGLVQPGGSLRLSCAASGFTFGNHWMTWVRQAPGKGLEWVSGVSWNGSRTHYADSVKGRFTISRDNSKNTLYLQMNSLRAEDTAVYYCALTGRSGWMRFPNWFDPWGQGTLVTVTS VL: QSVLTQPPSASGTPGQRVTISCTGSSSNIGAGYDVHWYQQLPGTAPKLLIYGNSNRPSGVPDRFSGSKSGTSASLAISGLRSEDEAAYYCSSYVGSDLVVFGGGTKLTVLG	147
T46J23-hIgG1 (antibody, V domains shown, also called T46J23-IgG) VH: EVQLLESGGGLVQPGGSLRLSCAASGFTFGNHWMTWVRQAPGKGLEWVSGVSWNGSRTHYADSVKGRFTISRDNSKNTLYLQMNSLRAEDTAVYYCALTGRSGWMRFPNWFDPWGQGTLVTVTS VL: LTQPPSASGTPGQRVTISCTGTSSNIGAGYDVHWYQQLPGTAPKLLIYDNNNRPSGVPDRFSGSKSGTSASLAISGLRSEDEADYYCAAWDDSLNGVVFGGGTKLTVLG	625

The origin of these recorded values is patent US20150307625A1.
